- measured-target: Human full-length diacylglycerol:acylCoA acyltransferase 1 (DGAT-1) (Homo sapiens, UniProt O75907)
- assay-protocol: In vitro assay for inhibition of DGAT-1 activity (DGAT 1 Reduced Microsome Multidose Assay)
- measurement-setup: Trial 4 Human IC50, Trial 4: eight concentrations of inhibitor, microsomes 5 μg/mL; average where n > 1
Exercise: state measured log10 of IC50 for each of the compounds provided.
Scale: log10; quantity: IC50; unit before log: nM

COC(=O)C(C)(C)c1ccc(N2C[C@@H](C)Oc3ncnc(N)c3C2=O)cc1 [Example 1X] | 1.51

Please supply log10 of IC50 for each of the following items, keeping them in order.
1. COCC(C)(C)c1ccc(N2C[C@@H](C)Oc3ncnc(N)c3C2=O)cc1 [Example 1AA]
2. C[C@@H]1CN(c2ccc(Cl)c(Cl)c2)C(=O)c2c(N)ncnc2O1 [Example 1AB]
3. C[C@@H]1CN(c2ccc(C3(O)CCCCC3)cc2)C(=O)c2c(N)ncnc2O1 [Example 1AJ]

Output line:
[1.63, 1.39, 1.55]

----------
- measured-target: Human full-length diacylglycerol:acylCoA acyltransferase 1 (DGAT-1) (Homo sapiens, UniProt O75907)
- Sequence (O75907 1-488): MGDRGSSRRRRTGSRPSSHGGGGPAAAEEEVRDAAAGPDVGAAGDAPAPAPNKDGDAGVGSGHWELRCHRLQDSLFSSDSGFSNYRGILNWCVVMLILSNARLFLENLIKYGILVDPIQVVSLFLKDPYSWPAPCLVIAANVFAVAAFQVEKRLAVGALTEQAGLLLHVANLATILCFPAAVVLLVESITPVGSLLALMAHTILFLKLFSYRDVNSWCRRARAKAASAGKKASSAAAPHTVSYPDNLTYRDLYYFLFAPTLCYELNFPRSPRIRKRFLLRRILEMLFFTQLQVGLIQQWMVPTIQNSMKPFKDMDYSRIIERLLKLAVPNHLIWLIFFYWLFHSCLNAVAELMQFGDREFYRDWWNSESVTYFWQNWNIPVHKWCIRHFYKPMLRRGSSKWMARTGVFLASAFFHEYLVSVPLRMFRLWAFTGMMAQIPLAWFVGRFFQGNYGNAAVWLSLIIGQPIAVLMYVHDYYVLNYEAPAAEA
- assay-protocol: In vitro assay for inhibition of DGAT-1 activity (DGAT 1 Reduced Microsome Multidose Assay)
- measurement-setup: Trial 1 Human IC50, Trial 1: as Trial 4 except microsomes at 25 μg/mL instead of 5 μg/mL; average where n > 1
Exercise: state measured log10 of IC50 for each of the molecules provided.
Scale: log10; quantity: IC50; unit before log: nM

Field: example entries. Status: answers known.
Nc1ncnc2c1C(=O)N(c1ccc([C@H]3CC[C@H](CC(=O)N4CCCC(CO)C4)CC3)cc1)CCO2 (some centres unmarked) [Example 6M] | 1.66
Nc1ncnc2c1C(=O)N(c1ccc([C@H]3CC[C@H](CC(=O)N4CCC4)CC3)cc1)CCO2 [Example 6AW] | 1.86
CO[C@H]1CCN(C(=O)C[C@H]2CC[C@H](c3ccc(N4CCOc5ncnc(N)c5C4=O)cc3)CC2)C1 [Example 6E] | 1.86
Nc1ncnc2c1C(=O)N(c1ccc([C@H]3CC[C@H](CC(=O)N4CCCCC4CCO)CC3)cc1)CCO2 (some centres unmarked) [Example 6AY] | 1.93
CC(C)(C(N)=O)c1ccc(N2CCOc3ncnc(N)c3C2=O)cc1 [Example 1D] | 3.44

Please supply log10 of IC50 for each of the following items, keeping them in order.
1. N#CC1CCCN(C(=O)C[C@H]2CC[C@H](c3ccc(N4CCOc5ncnc(N)c5C4=O)cc3)CC2)C1 (some centres unmarked) [Example 6AO]
2. CCN(Cc1nccn1C)C(=O)C[C@H]1CC[C@H](c2ccc(N3CCOc4ncnc(N)c4C3=O)cc2)CC1 [Example 6AS]
3. CN(C)C(=O)CN(C)C(=O)C[C@H]1CC[C@H](c2ccc(N3CCOc4ncnc(N)c4C3=O)cc2)CC1 [Example 6AT]
4. CN(C(=O)C[C@H]1CC[C@H](c2ccc(N3CCOc4ncnc(N)c4C3=O)cc2)CC1)[C@H]1CCCC[C@@H]1O [Example 6AG]
5. CC1(C)C(=O)NCCN1C(=O)C[C@H]1CC[C@H](c2ccc(N3CCOc4ncnc(N)c4C3=O)cc2)CC1 [Example 6AE]
6. CC1C(=O)NCCN1C(=O)C[C@H]1CC[C@H](c2ccc(N3CCOc4ncnc(N)c4C3=O)cc2)CC1 (some centres unmarked) [Example 6BB]

Output line:
1. 1.60
2. 1.68
3. 2.21
4. 1.72
5. 1.88
6. 2.17

Please supply log10 of IC50 for each of the following items, keeping them in order.
1. Nc1ncnc2c1C(=O)N(c1ccc([C@H]3CC[C@H](CC(=O)N4CCNC(=O)C4)CC3)cc1)CCO2 [Example 6AX]
2. CC(=O)N[C@@H]1CCN(C(=O)C[C@H]2CC[C@H](c3ccc(N4CCOc5ncnc(N)c5C4=O)cc3)CC2)C1 [Example 6S]
3. CC(c1ccncc1)N(C)C(=O)C[C@H]1CC[C@H](c2ccc(N3CCOc4ncnc(N)c4C3=O)cc2)CC1 (some centres unmarked) [Example 6AU]
4. CC(F)(F)CN(CCO)C(=O)C[C@H]1CC[C@H](c2ccc(N3CCOc4ncnc(N)c4C3=O)cc2)CC1 [Example 6AD]
5. CC(O)C1CCN(C(=O)C[C@H]2CC[C@H](c3ccc(N4CCOc5ncnc(N)c5C4=O)cc3)CC2)CC1 (some centres unmarked) [Example 6P]
6. Nc1ncnc2c1C(=O)N(c1ccc([C@H]3CC[C@H](CC(=O)N4CCC(CO)C4)CC3)cc1)CCO2 (some centres unmarked) [Example 6T]
7. CC1CCCN1C(=O)C[C@H]1CC[C@H](c2ccc(N3CCOc4ncnc(N)c4C3=O)cc2)CC1 (some centres unmarked) [Example 6AI]

Output line:
1. 2.09
2. 2.28
3. 1.88
4. 1.62
5. 1.59
6. 2.10
7. 1.91

Please supply log10 of IC50 for each of the following items, keeping them in order.
1. Nc1ncnc2c1C(=O)N(c1ccc([C@H]3CC[C@H](CCC(=O)N4CCOCC4)CC3)cc1)CCO2 [Example 6BF]
2. CO[C@@H]1CCN(C(=O)C[C@H]2CC[C@H](c3ccc(N4CCOc5ncnc(N)c5C4=O)cc3)CC2)C1 [Example 6BA]
3. CC1(O)CCN(C(=O)C[C@H]2CC[C@H](c3ccc(N4CCOc5ncnc(N)c5C4=O)cc3)CC2)CC1 [Example 6AP]
4. CN(C)C(=O)CCN(C)C(=O)C[C@H]1CC[C@H](c2ccc(N3CCOc4ncnc(N)c4C3=O)cc2)CC1 [Example 6AC]

Output line:
[1.78, 1.78, 2.03, 2.25]
